- Species: Rattus norvegicus
- assayDetails: DrugMatrix - Regimen: Daily Repeat
- Format: toxicity, organism-based, Sprague-Dawley
- Design: regimen Daily Repeat, gender Male, age 6-8 weeks
- testSettings: in vivo, po, 1500 mg/kg, 120 h, tissue Blood, route oral GAVAGE, dose level High, time 5 day, vehicle .5 % CMC
testReadout: PLATELET COUNT (x10E3/uL)
Expressed in x10E3/uL, but write only the number.

# compound, PLATELET COUNT (x10E3/uL)
rows = [
    ("COC(=O)Nc1nc2ccc([S+]([O-])c3ccccc3)cc2[nH]1 (stereo not given)", 1442.33),
]

GET /values?readout=PLATELET COUNT&item= CC(C)Oc1ccc2c(=O)c(-c3ccccc3)coc2c1
1215

GET /values?readout=PLATELET COUNT&item= CC(C)=CCC/C(C)=C/CO
1333

GET /values?readout=PLATELET COUNT&item= O=c1cnn([C@@H]2O[C@H](CO)[C@@H](O)[C@H]2O)c(=O)[nH]1
1665.67

GET /values?readout=PLATELET COUNT&item= CN(C)[C@@H]1C(O)=C(C(N)=O)C(=O)[C@@]2(O)C(O)=C3C(=O)c4c(O)ccc(Cl)c4[C@@](C)(O)[C@H]3C[C@@H]12
1340

* * *

- Species on record: Rattus norvegicus
- assayDetails: DrugMatrix - Regimen: Daily Repeat
- Type: toxicity, organism-based, Sprague-Dawley
- Parameters: regimen Daily Repeat, gender Male, age 6-8 weeks
- testSettings: in vivo, po, 0 mg/kg, 72 h, tissue Blood, route oral GAVAGE, dose level Control, time 3 day, vehicle 100 % WATER
testReadout: NUCLEATED RED BLOOD CELLS

Examples with answers:
# compound, readoutValue
measured = [
    ("CC(C)NCC(O)c1ccc(NS(C)(=O)=O)cc1 (centres undefined) [SOTALOL]", "0 /100WBC"),
    ("O.O.O.O.O.O.[Cl-].[Cl-].[Sr+2] [STRONTIUM CHLORIDE HEXAHYDRATE]", "0 /100WBC"),
]

GET /values?readout=NUCLEATED RED BLOOD CELLS&item= Cn1c(=O)c2[nH]cnc2n(C)c1=O.O [THEOPHYLLINE]
0 /100WBC

GET /values?readout=NUCLEATED RED BLOOD CELLS&item= CN(C)CCOC(c1ccccc1)c1ccccc1 [DIPHENHYDRAMINE]
0.17 /100WBC

GET /values?readout=NUCLEATED RED BLOOD CELLS&item= CCN(CC)CCNC(=O)c1cc(S(C)(=O)=O)ccc1OC [TIAPRIDE]
0 /100WBC

GET /values?readout=NUCLEATED RED BLOOD CELLS&item= C[C@]12C=CC(=O)C=C1CC[C@@H]1[C@@H]2[C@@H](O)C[C@@]2(C)[C@H]1CC[C@]2(O)C(=O)CO [PREDNISOLONE]
0 /100WBC

GET /values?readout=NUCLEATED RED BLOOD CELLS&item= CN1[C@@H]2CC[C@H]1C[C@@H](OC(=O)C(CO)c1ccccc1)C2 (some centres undefined) [ATROPINE]
0 /100WBC

GET /values?readout=NUCLEATED RED BLOOD CELLS&item= NNc1nncc2ccccc12 [HYDRALAZINE]
0.17 /100WBC

GET /values?readout=NUCLEATED RED BLOOD CELLS&item= Cc1ccc(NC(=O)c2ccc(CN3CCN(C)CC3)cc2)cc1Nc1nccc(-c2cccnc2)n1 [IMATINIB]
0 /100WBC

* * *

# CHLORIDE per record follows
- Organism: Rattus norvegicus
- assayDetails: DrugMatrix - Regimen: Daily Repeat
- Type: toxicity, organism-based, Sprague-Dawley
- Set-up: regimen Daily Repeat, gender Male, age 6-8 weeks
- testSettings: in vivo, po, 0 mg/kg, 72 h, tissue Plasma, route oral GAVAGE, dose level Control, time 3 day, vehicle .5 % CMC
Expressed in MEQ/L, but write only the number.

Examples with answers:
# molecule, readoutValue
data = [
    ("Cn1c(=O)c2c(ncn2CC(O)CO)n(C)c1=O (stereo not given)", 102.33),
    ("O=C1Nc2ccc(Cl)cc2C(c2ccccc2Cl)=NC1O (stereo not given)", 100.83),
    ("CC(=O)Oc1ccc(C(c2ccc(OC(C)=O)cc2)c2ccccn2)cc1", 104.33),
    ("CC(C(=O)O)c1ccc2oc(-c3ccc(Cl)cc3)nc2c1 (stereo not given)", 104.5),
]

GET /values?readout=CHLORIDE&item= NCCCC(O)(P(=O)(O)O)P(=O)(O)O
104.17

* * *

- Species on record: Rattus norvegicus
- assayDetails: DrugMatrix - Regimen: Daily Repeat
- Assay type: toxicity, organism-based, Sprague-Dawley
- Set-up: regimen Daily Repeat, gender Male, age 6-8 weeks
- testSettings: in vivo, po, 1500 mg/kg, 72 h, tissue Blood, route oral GAVAGE, dose level High, time 3 day, vehicle .5 % CMC
# ABSOLUTE MONOCYTE per record follows
Expressed in CELLS/uL, but write only the number.

Examples with answers:
# molecule, ABSOLUTE MONOCYTE / CELLS/uL
data = [
    ("CC(C)=CCC/C(C)=C/CO", 78.67),
    ("CC(C)Oc1ccc2c(=O)c(-c3ccccc3)coc2c1", 95),
    ("CN(C)[C@@H]1C(O)=C(C(N)=O)C(=O)[C@@]2(O)C(O)=C3C(=O)c4c(O)ccc(Cl)c4[C@@](C)(O)[C@H]3C[C@@H]12", 262.67),
    ("O=c1cnn([C@@H]2O[C@H](CO)[C@@H](O)[C@H]2O)c(=O)[nH]1", 29.33),
]

GET /values?readout=ABSOLUTE MONOCYTE&item= COC(=O)Nc1nc2ccc([S+]([O-])c3ccccc3)cc2[nH]1 (stereo not given)
174.67

* * *

# SODIUM per record follows
- Organism: Rattus norvegicus
- assayDetails: DrugMatrix - Regimen: Daily Repeat
- Type: toxicity, organism-based, Sprague-Dawley
- Set-up: regimen Daily Repeat, gender Male, age 6-8 weeks
- testSettings: in vivo, sc, 0 mg/kg, 120 h, tissue Plasma, route subcutaneous, dose level Control, time 5 day, […]
Expressed in MEQ/L, but write only the number.

Examples with answers:
# molecule, SODIUM (MEQ/L)
data = [
    ("O=C(Nc1ccc(Br)cc1)c1cc(Br)cc(Br)c1O", 144.57),
    ("CCC(=O)O[C@]1(C(=O)CCl)[C@@H](C)C[C@H]2[C@@H]3CCC4=CC(=O)C=C[C@]4(C)[C@@]3(F)[C@@H](O)C[C@@]21C [CLOBETASOL PROPIONATE]", 144.57),
]

GET /values?readout=SODIUM&item= CC(C)(C)CC(C)(C)c1ccc(OCCOCC[N+](C)(C)Cc2ccccc2)cc1.[Cl-] [BENZETHONIUM CHLORIDE]
143.1

GET /values?readout=SODIUM&item= CCN(CC)CCOCCC1=CCC2CC1C2(C)C (stereo not given)
143.97

GET /values?readout=SODIUM&item= Oc1c(Cl)cc(Cl)c(Cl)c1Cc1c(O)c(Cl)cc(Cl)c1Cl
143.1

* * *

# ABSOLUTE BASOPHIL per record follows
- Species: Rattus norvegicus
- assayDetails: DrugMatrix - Regimen: Daily Repeat
- Assay type: toxicity, organism-based, Sprague-Dawley
- Set-up: regimen Daily Repeat, gender Male, age 6-8 weeks
- testSettings: in vivo, sc, 0 mg/kg, 120 h, tissue Blood, route subcutaneous, dose level Control, time 5 day, […]
Expressed in CELLS/uL, but write only the number.

Examples with answers:
# compound, readoutValue
measured = [
    ("CCN(CC)CCOCCC1=CCC2CC1C2(C)C (stereo not given) [MYRTECAINE]", 0),
    ("CCC(=O)O[C@]1(C(=O)CCl)[C@@H](C)C[C@H]2[C@@H]3CCC4=CC(=O)C=C[C@]4(C)[C@@]3(F)[C@@H](O)C[C@@]21C [CLOBETASOL PROPIONATE]", 0),
    ("Oc1c(Cl)cc(Cl)c(Cl)c1Cc1c(O)c(Cl)cc(Cl)c1Cl [HEXACHLOROPHENE]", 0),
    ("O=C(Nc1ccc(Br)cc1)c1cc(Br)cc(Br)c1O [TRIBROMSALAN]", 0),
]

Next compound, please.
GET /values?readout=ABSOLUTE BASOPHIL&item= CC(C)(C)CC(C)(C)c1ccc(OCCOCC[N+](C)(C)Cc2ccccc2)cc1.[Cl-] [BENZETHONIUM CHLORIDE]
0

* * *

# URIC ACID per record follows
- Species on record: Rattus norvegicus
- assayDetails: DrugMatrix - Regimen: Daily Repeat
- Assay type: toxicity, organism-based, Sprague-Dawley
- Design: regimen Daily Repeat, gender Male, age 6-8 weeks
- testSettings: in vivo, sc, 0 mg/kg, 72 h, tissue Plasma, route subcutaneous, dose level Control, time 3 day, […]

Examples with answers:
# molecule, readoutValue
rows = [
    ("O=C(Nc1ccc(Br)cc1)c1cc(Br)cc(Br)c1O", "1.83 mg/dL"),
    ("Oc1c(Cl)cc(Cl)c(Cl)c1Cc1c(O)c(Cl)cc(Cl)c1Cl", "1.77 mg/dL"),
    ("CCN(CC)CCOCCC1=CCC2CC1C2(C)C (stereo not given)", "1.3 mg/dL"),
    ("CC(C)(C)CC(C)(C)c1ccc(OCCOCC[N+](C)(C)Cc2ccccc2)cc1.[Cl-] [BENZETHONIUM CHLORIDE]", "1.77 mg/dL"),
]

Next molecule, please.
GET /values?readout=URIC ACID&item= CCC(=O)O[C@]1(C(=O)CCl)[C@@H](C)C[C@H]2[C@@H]3CCC4=CC(=O)C=C[C@]4(C)[C@@]3(F)[C@@H](O)C[C@@]21C [CLOBETASOL PROPIONATE]
1.83 mg/dL
